Tested on: human ovarian carcinoma cells (1A9)
EXPERIMENT_SUMMARY: Antiproliferative assay (GI50, MTS)
Assay type: cell-based
STUDY_CONDITIONS: Homo sapiens, Ovarian carcinoma cell, 72 h, read-out: GI50 ± S.D., 1A9 parental cells, 72 h incubation
For each record, check the reported GI50: if it is below 0.7 nM write 1, else write -1.

Q: Consider C=CC=CC(C)C1OC(=O)C=CC=CC(C)C(O)CC(O)C=CC(C)C(O)C(C)CCCCC(O)C1C (stereo not drawn) [Compound 79] . Does its GI50 lie strictly below 0.7 nM?
Result: 1

Q: Consider C=C/C=C\[C@H](C)[C@H](O)[C@@H](C)[C@H](CC[C@H](C)C[C@@H](C)[C@@H](O[Si](C)(C)C(C)(C)C)[C@@H](C)/C=C\[C@H](C[C@H](O[Si](C)(C)C(C)(C)C)[C@@H](C)/C=C/C=C\C(=O)O)O[Si](C)(C)C(C)(C)C)O[Si](C)(C)C(C)(C)C [Compound 107] . Does its GI50 lie strictly below 0.7 nM?
Result: -1

Q: Consider C=CC=CC(C)C1OC(=O)C=CC=CC(C)C(O)CC(O)C=CC(C)C(O)C(C)CC(C)CCC(O)C1C (stereo not drawn) [Compound 108] . Does its GI50 lie strictly below 0.7 nM?
Result: -1

Q: Consider C=C/C=C\[C@H](C)[C@H](OC(N)=O)[C@@H](C)[C@H](O)[C@@H](C)C/C(C)=C\[C@H](C)[C@@H](O)[C@@H](C)/C=C\[C@@H](O)C[C@@H]1OC(=O)[C@H](C)[C@@H](O)[C@H]1C [discodermolide, reference compound] . Does its GI50 lie strictly below 0.7 nM?
Result: -1

Q: Consider C=C/C=C\[C@H](C)[C@H](O)[C@@H](C)[C@H](O)CC[C@H](C)C[C@H](C)[C@@H](O)[C@@H](C)/C=C\[C@@H](O)C[C@H](O)[C@H](C)/C=C/C=C\C(=O)OC [Compound 50] . Does its GI50 lie strictly below 0.7 nM?
Result: -1
